biological target: fMet-Leu-Phe receptor (Homo sapiens)
Sequence (P21462 whole entry): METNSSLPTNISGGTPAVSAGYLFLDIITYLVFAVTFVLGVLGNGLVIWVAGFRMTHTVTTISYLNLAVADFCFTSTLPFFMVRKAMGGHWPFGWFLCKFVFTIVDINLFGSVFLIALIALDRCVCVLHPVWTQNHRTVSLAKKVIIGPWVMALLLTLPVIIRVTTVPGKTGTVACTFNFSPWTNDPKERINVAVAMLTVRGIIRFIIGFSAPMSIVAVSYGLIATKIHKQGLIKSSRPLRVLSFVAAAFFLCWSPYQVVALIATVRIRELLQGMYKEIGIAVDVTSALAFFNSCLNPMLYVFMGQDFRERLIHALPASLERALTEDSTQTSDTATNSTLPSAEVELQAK
Quick rule for you: EC50 under 0.05 µM gets True, anything else gets False.

{"columns": ["Compound", "Study System", "Class"],
 "data": [
  ["COc1ccc(-n2cc(-c3ccc(F)cc3F)nc2NC(=O)c2ccc(OC(F)F)cc2)cc1", "fMet-Leu-Phe receptor (Homo sapiens)", "True"],
  ["COc1cc(F)c(-n2cc(C3CCC(O)CC3)nc2NC(=O)c2ccc(OC(F)F)cc2)c(F)c1 (centres undefined)", "fMet-Leu-Phe receptor (Homo sapiens)", "True"],
  ["COc1cc(F)c(-n2cc(C(=O)N3CCOCC3)nc2NC(=O)c2ccc(OC(F)F)cc2)c(F)c1", "fMet-Leu-Phe receptor (Homo sapiens)", "False"],
  ["COc1ccc(-n2cc(C(=O)NCCCO)nc2NC(=O)c2ccc(OC(F)F)cc2)cc1", "fMet-Leu-Phe receptor (Homo sapiens)", "True"],
  ["COc1cc(F)c(-n2cc(C(=O)N3CCNC(=O)C3)nc2NC(=O)c2ccc(OC(F)F)cc2)c(F)c1", "fMet-Leu-Phe receptor (Homo sapiens)", "False"]
]}

Quick check: does COc1cc(F)c(-n2c(NC(=O)c3ccc(OC(F)F)cc3)nc(-c3ccc(Cl)cc3)c2C)c(F)c1 have EC50 under 0.05 µM?
False

In the record for COc1cc(F)c(-n2cc(C(=O)N3CCC(CO)C3)nc2NC(=O)c2ccc(OC(F)F)cc2)c(F)c1 (centres undefined) , is EC50 less than 0.05 µM?
False

A record lists COc1cc(F)c(-n2cc(C(=O)N3CCNCC3)nc2NC(=O)c2ccc(OC(F)F)cc2)c(F)c1 . Is its EC50 below 0.05 µM?
False
